SYSTEM TESTED: HLA-DQ2 (Homo sapiens, UniProt P01909+P01920)
Sequence (P01920 33-261 limits assumed, other chains not shown): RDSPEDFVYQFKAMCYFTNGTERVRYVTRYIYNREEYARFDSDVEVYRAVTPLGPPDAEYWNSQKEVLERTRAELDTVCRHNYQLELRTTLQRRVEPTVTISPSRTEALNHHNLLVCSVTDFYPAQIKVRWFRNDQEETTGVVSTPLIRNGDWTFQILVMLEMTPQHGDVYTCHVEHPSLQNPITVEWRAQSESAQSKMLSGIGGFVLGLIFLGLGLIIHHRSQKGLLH
TEST: Inhibition of IL-2 secretion by TCR transductants stimulated by α-gliadin peptides presented by HLA-DQ2 expressing K562 cells (ELISA)
Type: cell-based
SETTINGS: inhibition of IL-2 secretion at 200 uM; tested as trans racemate unless otherwise noted; lines naming several Examples = stereoisomer mixture of those Examples
VALUE KIND: % Inh at 200 uM

O=C(c1ccccc1F)N1CCN(C(=O)C2CC2c2ccc3c(c2)OCO3)CC1 (stereo not shown) [Example 22] = B (B=50-74%)
O=C(COC1CC1)N1CCN(C(=O)[C@@H]2C[C@H]2c2ccccc2)CC1 (racemic) [Example 38] = C (C=25-49%)
CN(CC(=O)N1CCN(C(=O)[C@H]2CC2c2ccccc2)CC1)C1CCCC1 (stereo partly shown) [Example 82] = B (B=50-74%)
COc1ccccc1SCC(=O)N1CCN(C(=O)[C@@H]2C[C@H]2c2ccccc2)CC1 [Example 63] = B (B=50-74%)
O=C(COC1CCC1)N1CCN(C(=O)[C@@H]2C[C@H]2c2ccccc2)CC1 (racemic) [Example 39] = B (B=50-74%)

stdin: I would be grateful if you could share the reported % Inh at 200 uM for O=C(CSc1ccccc1Cl)N1CCN(C(=O)[C@@H]2C[C@H]2c2ccccc2)CC1 (relative stereo) [Example 60] .
stdout: B (B=50-74%)

stdin: I would be grateful if you could share the reported % Inh at 200 uM for O=C(CSc1ccccc1O)N1CCN(C(=O)[C@@H]2C[C@H]2c2ccccc2)CC1 [Example 88] .
stdout: B (B=50-74%)

stdin: I would be grateful if you could share the reported % Inh at 200 uM for CSc1ccccc1C(=O)N1CCN(C(=O)C2CC2c2ccc3c(c2)OCO3)CC1 (stereo not shown) [Example 19] .
stdout: C (C=25-49%)

stdin: I would be grateful if you could share the reported % Inh at 200 uM for O=CNc1ccccc1OCC(=O)N1CCN(C(=O)[C@@H]2C[C@H]2c2ccccc2)CC1 [Example 93] .
stdout: B (B=50-74%)

stdin: I would be grateful if you could share the reported % Inh at 200 uM for O=C(C[S+]([O-])C1CCCC1)N1CCN(C(=O)C2C[C@@H]2c2ccccc2)CC1 (stereo partly shown) [Example 80] .
stdout: B (B=50-74%)

stdin: I would be grateful if you could share the reported % Inh at 200 uM for O=C(CSC1CCCC1)N1CCN(C(=O)[C@H]2C[C@@H]2c2ccccc2O)CC1 [Example 37] .
stdout: B (B=50-74%)
